The measurements presented in this section are drawn from ChEMBL document CHEMBL5291721.

biological target: UniProt:P22303; assay type: functional
Sequence (P22303 whole entry): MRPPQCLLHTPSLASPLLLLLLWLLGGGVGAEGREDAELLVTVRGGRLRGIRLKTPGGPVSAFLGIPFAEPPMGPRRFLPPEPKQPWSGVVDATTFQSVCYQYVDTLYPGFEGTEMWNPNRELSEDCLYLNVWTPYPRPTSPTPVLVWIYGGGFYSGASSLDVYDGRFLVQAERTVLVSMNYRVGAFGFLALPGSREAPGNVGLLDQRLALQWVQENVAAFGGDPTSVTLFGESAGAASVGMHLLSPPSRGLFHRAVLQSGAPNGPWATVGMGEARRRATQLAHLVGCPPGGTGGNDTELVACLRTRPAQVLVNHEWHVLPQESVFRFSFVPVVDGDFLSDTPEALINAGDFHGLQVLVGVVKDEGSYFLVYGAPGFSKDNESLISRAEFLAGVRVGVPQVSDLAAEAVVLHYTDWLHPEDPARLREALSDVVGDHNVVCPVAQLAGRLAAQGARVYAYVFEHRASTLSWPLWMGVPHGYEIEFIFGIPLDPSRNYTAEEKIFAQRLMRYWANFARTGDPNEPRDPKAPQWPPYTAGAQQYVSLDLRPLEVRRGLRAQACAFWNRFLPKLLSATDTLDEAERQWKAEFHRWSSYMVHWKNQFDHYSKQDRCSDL
reported.metric: AC50

Form: molecule = CN(C)c1cc(CNCC(C)(C)C)c(O)c2c1C[C@H]1C[C@H]3[C@H](N(C)C)C(O)=C(C(N)=O)C(=O)[C@@]3(O)C(O)=C1C2=O [OMADACYCLINE] ; AC50 = > 10 µM

Form: molecule = N[C@@H](CC(=O)O)C(=O)O [ASPARTIC ACID] ; AC50 = > 30 µM

Form: molecule = CN1CCC[C@H]1c1cccnc1 [NICOTINE] ; AC50 = > 30 µM

----------
target: Androgen receptor (Rattus norvegicus, UniProt P15207); assay type: functional; further: assay procedure not described here
Sequence (P15207 whole entry S389L): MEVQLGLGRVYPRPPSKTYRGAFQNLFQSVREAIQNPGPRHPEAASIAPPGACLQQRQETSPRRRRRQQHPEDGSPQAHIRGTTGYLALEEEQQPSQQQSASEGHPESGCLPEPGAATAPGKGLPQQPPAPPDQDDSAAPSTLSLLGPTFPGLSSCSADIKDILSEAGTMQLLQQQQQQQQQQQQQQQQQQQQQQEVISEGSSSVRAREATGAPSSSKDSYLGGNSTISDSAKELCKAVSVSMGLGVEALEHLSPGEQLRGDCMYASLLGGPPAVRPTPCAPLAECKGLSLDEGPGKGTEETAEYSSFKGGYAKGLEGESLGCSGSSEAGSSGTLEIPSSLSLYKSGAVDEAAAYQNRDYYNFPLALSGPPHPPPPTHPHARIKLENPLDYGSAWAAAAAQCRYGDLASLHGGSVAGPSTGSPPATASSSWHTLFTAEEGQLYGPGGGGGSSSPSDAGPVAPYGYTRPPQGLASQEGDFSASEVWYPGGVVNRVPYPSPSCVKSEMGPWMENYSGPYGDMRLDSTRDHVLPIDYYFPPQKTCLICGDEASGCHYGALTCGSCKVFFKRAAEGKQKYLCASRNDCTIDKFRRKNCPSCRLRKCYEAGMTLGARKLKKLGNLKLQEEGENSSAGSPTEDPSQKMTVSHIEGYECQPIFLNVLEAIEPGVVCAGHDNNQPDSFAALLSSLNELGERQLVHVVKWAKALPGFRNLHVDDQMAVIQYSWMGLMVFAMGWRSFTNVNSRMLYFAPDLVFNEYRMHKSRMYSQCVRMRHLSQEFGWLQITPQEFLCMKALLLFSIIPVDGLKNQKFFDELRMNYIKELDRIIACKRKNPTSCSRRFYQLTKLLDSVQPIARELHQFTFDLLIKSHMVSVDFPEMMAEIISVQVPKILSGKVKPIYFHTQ
reported.metric: AC50

Observe how each entry below is paired with its result.
Reading of AC50 for Nc1ccc(C(=O)O)c(O)c1 with Androgen receptor (Rattus norvegicus, UniProt P15207): > 30 µM

Reading of AC50 for CN(C)c1cc(CNCC(C)(C)C)c(O)c2c1C[C@H]1C[C@H]3[C@H](N(C)C)C(O)=C(C(N)=O)C(=O)[C@@]3(O)C(O)=C1C2=O with Androgen receptor (Rattus norvegicus, UniProt P15207): > 30 µM

Reading of AC50 for Nc1nc2c(c(=O)[nH]1)N(C=O)C(CNc1ccc(C(=O)N[C@@H](CCC(=O)O)C(=O)O)cc1)CN2 (stereo partly drawn) with Androgen receptor (Rattus norvegicus, UniProt P15207): > 30 µM

Reading of AC50 for Cc1cc2nc3c(=O)[nH]c(=O)nc-3n(C[C@H](O)[C@H](O)[C@H](O)COP(=O)(O)O)c2cc1C [RIBOFLAVIN 5'-PHOSPHATE] with Androgen receptor (Rattus norvegicus, UniProt P15207): > 3 µM

Reading of AC50 for C=C[C@@]1(C)CC(=O)[C@]2(O)[C@@]3(C)[C@@H](O)CCC(C)(C)[C@@H]3[C@H](OC(=O)CCN(C)C)[C@H](OC(C)=O)[C@@]2(C)O1 with Androgen receptor (Rattus norvegicus, UniProt P15207): > 30 µM

New cases:
Reading of AC50 for COC(=O)N[C@@H](C)CNc1nccc(-c2cn(C(C)C)nc2-c2cc(Cl)cc(NS(C)(=O)=O)c2F)n1 with Androgen receptor (Rattus norvegicus, UniProt P15207): > 30 µM

Reading of AC50 for CCC(C)(Oc1ccc(C2(c3ccc(OC(C)(CC)C(=O)O)cc3)CCCCC2)cc1)C(=O)O (stereo not drawn) [CLINOFIBRATE] with Androgen receptor (Rattus norvegicus, UniProt P15207): > 30 µM

Reading of AC50 for CN(C)C(=O)Oc1cc(OC(=O)N(C)C)cc(C(O)CNC(C)(C)C)c1 (stereo not drawn) with Androgen receptor (Rattus norvegicus, UniProt P15207): > 30 µM

Reading of AC50 for CC1(C)C(/C=C/C=C/C=C/C=C2\N(CCCCS(=O)(=O)O)c3ccc4ccccc4c3C2(C)C)=[N+](CCCCS(=O)(=O)[O-])c2ccc3ccccc3c21 [INDOCYANINE GREEN ACID FORM] with Androgen receptor (Rattus norvegicus, UniProt P15207): 6.8 µM

Reading of AC50 for COc1ccc(Cc2nccc3cc(OC)c(OC)cc23)cc1OC with Androgen receptor (Rattus norvegicus, UniProt P15207): > 30 µM

Reading of AC50 for CC(C)=CCOc1ccc(/C=C/C(=O)c2ccc(OCC=C(C)C)cc2OCC(=O)O)cc1 with Androgen receptor (Rattus norvegicus, UniProt P15207): 6.1 µM

Reading of AC50 for CC(C)(C)NCC(O)c1cc(Cl)c(N)c(Cl)c1 (stereo not drawn) with Androgen receptor (Rattus norvegicus, UniProt P15207): > 30 µM

Reading of AC50 for COc1cc(OC)c(C(=O)CCCN2CCCC2)c(OC)c1 with Androgen receptor (Rattus norvegicus, UniProt P15207): > 30 µM

----------
target: Muscarinic acetylcholine receptor M1 (Homo sapiens, UniProt P11229); type: functional; further: assay procedure not described here
Sequence (P11229 whole entry): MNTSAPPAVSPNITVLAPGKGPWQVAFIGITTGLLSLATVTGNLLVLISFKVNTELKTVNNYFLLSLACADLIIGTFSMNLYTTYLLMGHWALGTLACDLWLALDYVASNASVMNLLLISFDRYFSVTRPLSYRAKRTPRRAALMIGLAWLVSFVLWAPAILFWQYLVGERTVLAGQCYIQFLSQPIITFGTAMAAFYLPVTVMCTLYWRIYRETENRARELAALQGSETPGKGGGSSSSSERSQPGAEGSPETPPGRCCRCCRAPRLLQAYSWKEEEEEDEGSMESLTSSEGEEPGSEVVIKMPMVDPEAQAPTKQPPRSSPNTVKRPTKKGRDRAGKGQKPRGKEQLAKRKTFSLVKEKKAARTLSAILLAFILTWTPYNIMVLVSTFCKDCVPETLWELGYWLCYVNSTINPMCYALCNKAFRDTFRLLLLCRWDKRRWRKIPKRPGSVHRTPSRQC
reported.metric: AC50

Form: compound = CCC(=O)O[C@@H](O[P@](=O)(CCCCc1ccccc1)CC(=O)N1C[C@H](C2CCCCC2)C[C@H]1C(=O)O)C(C)C ; AC50 = > 30 µM

Form: compound = CC(=O)/N=c1/sc(S(N)(=O)=O)nn1C [METHAZOLAMIDE] ; AC50 = > 10 µM

New cases:
Form: compound = CC[N+]1(C)CCCC(OC(=O)C(O)(c2ccccc2)c2ccccc2)C1 (configuration not stated) [PIPENZOLATE] ; AC50 = 0.023 µM

Form: compound = CCC(=O)OCC(=O)[C@@]1(OC(=O)CC)[C@@H](C)C[C@H]2[C@@H]3CCC4=CC(=O)C=C[C@]4(C)[C@@]3(F)[C@@H](O)C[C@@]21C [BETAMETHASONE DIPROPIONATE] ; AC50 = > 30 µM

Form: compound = NC(=O)CCC/N=C(\c1ccc(Cl)cc1)c1cc(F)ccc1O [PROGABIDE] ; AC50 = > 10 µM

Form: compound = C[C@@H]1CCC[C@H](C)N1NC(=O)c1ccc(Cl)c(S(N)(=O)=O)c1 [CLOPAMIDE] ; AC50 = > 30 µM

----------
Target: Alpha-1A adrenergic receptor (Homo sapiens, UniProt P35348); further: assay procedure not described here
Sequence (P35348 whole entry): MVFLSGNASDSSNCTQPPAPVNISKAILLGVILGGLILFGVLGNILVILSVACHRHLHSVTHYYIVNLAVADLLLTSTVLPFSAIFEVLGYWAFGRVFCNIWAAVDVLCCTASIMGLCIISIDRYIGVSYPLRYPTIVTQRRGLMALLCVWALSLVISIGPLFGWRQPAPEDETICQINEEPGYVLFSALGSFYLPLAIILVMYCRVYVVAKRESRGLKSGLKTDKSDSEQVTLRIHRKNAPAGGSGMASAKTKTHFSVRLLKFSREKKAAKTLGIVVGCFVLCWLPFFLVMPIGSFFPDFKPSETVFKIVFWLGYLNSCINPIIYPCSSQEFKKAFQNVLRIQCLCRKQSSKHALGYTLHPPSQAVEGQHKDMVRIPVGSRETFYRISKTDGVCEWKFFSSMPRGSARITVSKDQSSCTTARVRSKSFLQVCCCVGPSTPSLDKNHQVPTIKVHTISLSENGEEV
Assay type: functional, cell-based
Listed below: AC50 values for each entry.

Observe how each entry below is paired with its result.
Reading of AC50 for O=C(NC(Cc1cc(=O)[nH]c2ccccc12)C(=O)O)c1ccc(Cl)cc1 (stereo not given) [REBAMIPIDE] with Alpha-1A adrenergic receptor (Homo sapiens, UniProt P35348): > 30 µM

Reading of AC50 for C=C1c2c(Cl)ccc(O)c2C(=O)C2=C(O)[C@]3(O)C(=O)C(C(N)=O)=C(O)[C@@H](N(C)C)[C@@H]3[C@@H](O)[C@H]12 [MECLOCYCLINE] with Alpha-1A adrenergic receptor (Homo sapiens, UniProt P35348): > 30 µM

New cases:
Reading of AC50 for O=C(CCCN1CCC2(CC1)C(=O)NCN2c1ccccc1)c1ccc(F)cc1 [SPIPERONE] with Alpha-1A adrenergic receptor (Homo sapiens, UniProt P35348): 0.081 µM

Reading of AC50 for C#C[C@]1(O)CC[C@H]2[C@@H]3CCC4=C(CCC(=O)C4)[C@H]3CC[C@@]21C [NORETHYNODREL] with Alpha-1A adrenergic receptor (Homo sapiens, UniProt P35348): 17.4 µM

Reading of AC50 for CN1CCC[C@H]1c1cccnc1 [NICOTINE] with Alpha-1A adrenergic receptor (Homo sapiens, UniProt P35348): > 30 µM

----------
molecular target: UniProt P00533; assay type: functional
Sequence (P00533 whole entry): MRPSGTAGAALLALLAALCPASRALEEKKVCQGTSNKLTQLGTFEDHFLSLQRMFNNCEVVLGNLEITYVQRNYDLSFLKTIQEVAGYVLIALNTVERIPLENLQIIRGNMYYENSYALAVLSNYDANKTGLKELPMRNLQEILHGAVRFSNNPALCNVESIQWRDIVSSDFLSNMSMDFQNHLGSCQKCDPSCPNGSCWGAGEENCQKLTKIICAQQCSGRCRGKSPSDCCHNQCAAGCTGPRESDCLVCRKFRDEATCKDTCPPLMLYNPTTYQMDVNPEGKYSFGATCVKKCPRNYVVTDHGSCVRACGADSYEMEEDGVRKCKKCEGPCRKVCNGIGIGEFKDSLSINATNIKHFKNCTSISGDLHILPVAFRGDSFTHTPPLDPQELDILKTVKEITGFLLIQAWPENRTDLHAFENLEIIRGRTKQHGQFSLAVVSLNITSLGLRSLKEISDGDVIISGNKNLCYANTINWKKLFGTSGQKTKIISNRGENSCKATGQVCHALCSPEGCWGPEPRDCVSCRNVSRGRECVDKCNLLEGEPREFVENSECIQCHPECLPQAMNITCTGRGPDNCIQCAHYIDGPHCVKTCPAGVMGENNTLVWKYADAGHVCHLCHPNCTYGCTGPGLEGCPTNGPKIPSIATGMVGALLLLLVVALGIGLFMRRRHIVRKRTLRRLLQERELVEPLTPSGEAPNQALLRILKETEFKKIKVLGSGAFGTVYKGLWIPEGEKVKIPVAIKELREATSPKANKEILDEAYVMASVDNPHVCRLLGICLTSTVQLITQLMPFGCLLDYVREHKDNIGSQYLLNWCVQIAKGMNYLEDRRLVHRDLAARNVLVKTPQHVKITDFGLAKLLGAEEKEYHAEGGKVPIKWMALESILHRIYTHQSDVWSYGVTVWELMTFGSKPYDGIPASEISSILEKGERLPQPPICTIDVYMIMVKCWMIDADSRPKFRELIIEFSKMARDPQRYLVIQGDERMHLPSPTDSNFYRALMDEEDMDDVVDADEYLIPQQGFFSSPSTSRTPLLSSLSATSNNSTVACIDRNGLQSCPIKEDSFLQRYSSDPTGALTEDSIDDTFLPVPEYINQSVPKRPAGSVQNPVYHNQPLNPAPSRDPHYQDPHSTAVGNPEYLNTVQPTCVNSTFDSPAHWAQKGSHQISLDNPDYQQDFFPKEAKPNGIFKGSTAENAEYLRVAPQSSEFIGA
Listed below: AC50 values for each entry.

Observe how each entry below is paired with its result.
Form: compound = CCCN(CCc1cccs1)[C@H]1CCc2c(O)cccc2C1 [ROTIGOTINE] ; AC50 = > 30 µM

Form: compound = C[C@H]1Oc2cc(cnc2N)-c2c(nn(C)c2C#N)CN(C)C(=O)c2ccc(F)cc21 [LORLATINIB] ; AC50 = 2.9 µM

Form: compound = CC(=O)S[C@@H]1CC2=CC(=O)CC[C@]2(C)[C@H]2CC[C@@]3(C)[C@@H](CC[C@@]34CCC(=O)O4)[C@H]12 [SPIRONOLACTONE] ; AC50 = > 30 µM

Form: compound = CC(=N)N1CC[C@H](SC2=C(C(=O)O)N3C(=O)[C@H]([C@@H](C)O)[C@H]3C2)C1 ; AC50 = > 300 µM

Form: compound = CCCN(CCC)CCc1cccc2c1CC(=O)N2 [ROPINIROLE] ; AC50 = > 30 µM

We next turn to a different compound, shown below.
Form: compound = O=C1NC(=O)C(c2ccccc2)(c2ccccc2)N1 [PHENYTOIN] ; AC50 = > 30 µM

----------
biological target: Prostaglandin G/H synthase 1 (Homo sapiens, UniProt P23219); assay type: functional; further: assay procedure not described here
Sequence (P23219 whole entry): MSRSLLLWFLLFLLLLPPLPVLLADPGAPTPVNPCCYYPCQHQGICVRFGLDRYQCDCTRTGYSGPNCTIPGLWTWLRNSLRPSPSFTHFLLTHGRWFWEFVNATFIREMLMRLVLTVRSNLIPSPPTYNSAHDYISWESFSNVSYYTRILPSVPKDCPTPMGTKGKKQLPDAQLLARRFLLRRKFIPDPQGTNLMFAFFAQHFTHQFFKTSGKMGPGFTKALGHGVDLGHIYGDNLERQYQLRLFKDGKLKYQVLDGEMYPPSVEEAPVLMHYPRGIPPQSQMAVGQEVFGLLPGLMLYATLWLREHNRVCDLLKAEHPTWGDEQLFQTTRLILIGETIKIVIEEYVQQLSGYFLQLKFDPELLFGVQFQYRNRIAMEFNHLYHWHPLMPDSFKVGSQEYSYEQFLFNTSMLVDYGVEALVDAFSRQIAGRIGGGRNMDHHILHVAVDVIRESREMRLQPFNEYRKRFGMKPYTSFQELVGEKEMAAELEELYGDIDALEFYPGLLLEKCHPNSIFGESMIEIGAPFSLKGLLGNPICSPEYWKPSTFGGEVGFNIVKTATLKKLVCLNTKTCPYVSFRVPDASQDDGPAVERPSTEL
Listed below: AC50 values for each entry.

Observe how each entry below is paired with its result.
Form: molecule = CN1CCN(CCCN2c3ccccc3Sc3ccc(S(=O)(=O)N(C)C)cc32)CC1 [THIOPROPERAZINE] ; AC50 = 23.6 µM

Form: molecule = CCC(=O)O[C@@H]1CC(=O)O[C@H](C)C/C=C/C=C/[C@H](OC(C)=O)[C@H](C)C[C@H](CC=O)[C@H](O[C@@H]2O[C@H](C)[C@@H](O[C@H]3C[C@@](C)(OC(C)=O)[C@@H](OC(=O)CC)[C@H](C)O3)[C@H](N(C)C)[C@H]2O)[C@H]1OC [MIOCAMYCIN] ; AC50 = > 30 µM

Form: molecule = CO[C@H]1[C@@H](O)C[C@H](O[C@H]2[C@@H](O)C[C@H](O[C@H]3[C@@H](O)C[C@H](O[C@H]4CC[C@@]5(C)[C@H](CC[C@@H]6[C@@H]5C[C@@H](O)[C@]5(C)[C@@H](C7=CC(=O)OC7)CC[C@]65O)C4)O[C@@H]3C)O[C@@H]2C)O[C@@H]1C [METILDIGOXIN] ; AC50 = > 30 µM

Form: molecule = O=C1[C@H]2CCCC[C@H]2C(=O)N1CCCCN1CCN(c2nsc3ccccc23)CC1 [PEROSPIRONE] ; AC50 = > 30 µM

Form: molecule = CCC[C@@H]1C[C@@H](C(=O)N[C@@H]([C@H]2O[C@H](SC)[C@H](OP(=O)(O)O)[C@@H](O)[C@H]2O)[C@H](C)Cl)N(C)C1 [CLINDAMYCIN PHOSPHATE] ; AC50 = > 30 µM

Form: molecule = Cn1c(=O)c2[nH]cnc2n(C)c1=O [THEOPHYLLINE] ; AC50 = > 30 µM

Form: molecule = Cc1ccc([C@@H]2O[C@H](CO)[C@@H](O)[C@H](O)[C@H]2O)cc1Cc1ccc(-c2ccc(F)cc2)s1 [CANAGLIFLOZIN ANHYDROUS] ; AC50 = > 30 µM

Form: molecule = CCOC(=O)c1ccc(OC(=O)CCCCCNC(=N)N)cc1 [GABEXATE] ; AC50 = > 30 µM

Form: molecule = NC(=O)NCCC[C@H](N)C(=O)O [L-CITRULLINE] ; AC50 = > 30 µM

Form: molecule = CCOc1cc(N)c(Cl)cc1C(=O)NCC1CN(Cc2ccc(F)cc2)CCO1 (configuration not stated) [MOSAPRIDE] ; AC50 = > 30 µM

New cases:
Form: molecule = C[C@H](N)C(=O)O [ALANINE] ; AC50 = > 30 µM
